pKi by entry:
Target: Kappa-type opioid receptor (Rattus norvegicus)
Sequence (P34975 whole entry): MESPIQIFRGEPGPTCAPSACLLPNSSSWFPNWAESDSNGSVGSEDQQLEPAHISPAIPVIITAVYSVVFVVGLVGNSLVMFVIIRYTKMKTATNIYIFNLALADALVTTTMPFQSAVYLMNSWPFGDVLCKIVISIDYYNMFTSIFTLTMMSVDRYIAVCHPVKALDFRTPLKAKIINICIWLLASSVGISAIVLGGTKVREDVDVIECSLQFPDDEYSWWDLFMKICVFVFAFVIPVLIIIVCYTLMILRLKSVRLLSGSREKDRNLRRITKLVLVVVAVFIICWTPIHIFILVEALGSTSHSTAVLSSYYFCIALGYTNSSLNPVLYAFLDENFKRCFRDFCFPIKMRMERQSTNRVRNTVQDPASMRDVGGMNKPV
Answer as the number alone; pKi is minus log10 of concentration in mol/L.

# count of solved cases: 8
CCCCOc1cccc2c1[C@]13CCN(CC4CC4)[C@H](C2)[C@]1(OCCCc1ccccc1)CCC(=O)C3 :: 3.82
O=C1CC[C@@]2(OCCCc3ccccc3)[C@H]3Cc4cccc5c4[C@@]2(CCN3CC2CC2)C1O5 (some centres undefined) :: 4.64
CO[C@@]12CCC(=O)C[C@@]13CCN(CC1CC1)[C@@H]2Cc1cccc(OCCCc2ccccc2)c13 :: 3.68
COc1cccc2c1[C@]13CCN(CC4CC4)[C@H](C2)[C@]1(OC)CCC(=O)C3 [CYPRODIME] :: 3.96
CCCCOc1cccc2c1[C@]13CCN(CC4CC4)[C@H](C2)[C@]1(OC)CCC(=O)C3 :: 3.58
COc1cccc2c1[C@]13CCN(CC4CC4)[C@H](C2)[C@]1(OCCCc1ccccc1)CCC(=O)C3 :: 5.13
CO[C@@]12CCC(=O)C[C@@]13CCN(CC1CC1)[C@@H]2Cc1cccc(OCc2ccccc2)c13 :: 4.25
CCCCCCOc1cccc2c1[C@]13CCN(CC4CC4)[C@H](C2)[C@]1(OC)CCC(=O)C3 :: 3.36

API: the following record is the query input.
Return reported pKi for target or system Kappa-type opioid receptor (Rattus norvegicus), item "O=C1CC[C@@]2(OCCCc3ccccc3)[C@H]3Cc4cccc(O)c4[C@@]2(CCN3CC2CC2)C1" . 5.23
